Please respond with reported Kd for every item in the list.
- target desc: T1, recombinant LILRB1 ECD (human, UniProt Q8NHL6 24-461)
- T1 construct: also called biotinylated LILRB1 ECD
- T1 sequence (Q8NHL6 24-461 limits assumed): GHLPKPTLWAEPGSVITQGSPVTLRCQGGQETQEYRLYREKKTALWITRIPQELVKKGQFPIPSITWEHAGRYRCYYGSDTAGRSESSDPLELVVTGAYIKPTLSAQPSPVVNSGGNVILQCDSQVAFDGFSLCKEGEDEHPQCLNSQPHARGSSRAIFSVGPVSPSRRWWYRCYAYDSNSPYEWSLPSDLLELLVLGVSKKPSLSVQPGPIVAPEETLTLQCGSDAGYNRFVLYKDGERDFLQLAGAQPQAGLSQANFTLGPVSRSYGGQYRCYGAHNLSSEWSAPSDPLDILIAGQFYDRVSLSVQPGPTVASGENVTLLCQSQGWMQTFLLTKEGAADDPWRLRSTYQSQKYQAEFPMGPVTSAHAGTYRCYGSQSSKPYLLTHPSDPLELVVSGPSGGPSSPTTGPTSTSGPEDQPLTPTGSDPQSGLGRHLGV
- experiment summary: BLI, IgG on AHC sensor, ECD in solution
Express the reported value numerically, then name its unit.

Query (binder): A-001 (antibody, V domains shown, tested as IgG; also called parental antibody A-001) VH: QVQLVQSGAEVKKPGSSVKVSCKASGGTFSSYAISWVRQAPGQGLEWMGGIIPIFGTANYAQKFQGRVTITADESTSTAYMELSSLRSEDTAVYYCAKDLGTYSSGWPYYYGMDVWGQGTTVTVSS VL: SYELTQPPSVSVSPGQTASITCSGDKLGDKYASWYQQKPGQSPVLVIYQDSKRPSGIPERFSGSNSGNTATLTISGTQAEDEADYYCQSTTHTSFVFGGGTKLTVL ; field requested: Kd
157 nM

Query (binder): A-027 (antibody, V domains shown, tested as IgG) VH: QVQLVQSGAEVKKPGSSVKVSCKASGGSFTGYAISWVRQAPGQGLEWMGGILPSFYTAVYAQKFQGRVTITADESTSTAYMELSSLRSEDTAVYYCAKGPPVGSSSWYTDWYFDLWGRGTLVTVSS VL: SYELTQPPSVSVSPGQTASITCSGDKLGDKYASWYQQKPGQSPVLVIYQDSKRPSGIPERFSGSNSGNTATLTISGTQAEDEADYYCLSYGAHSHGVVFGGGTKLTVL ; field requested: Kd
0.5 nM
